Measured cytotoxicity, listed per entry for reference.
Test: viability loss of HPDE-C7K cells – cell-based, fluorescence, HTS, primary screen (AID 431);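 further: 0% = DMSO solvent wells and 100% = doxorubicin-treated wells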
Settings: HPDE-C7K KRASV12 cells, Alamar Blue viability, 48 h; at 10 µM; stronger effect = higher value
In all, about 63,000 compounds went through this assay and about 1,100 (1.7%) were called active. Shown is part of a subset that was picked to be rich in actives. Results with a measured potency or affinity are listed apart.
PROPERTY: cytotoxicity (%)

>>> measured_number("COc1ccc(S(=O)(=O)N(C)CC(=O)N2CCC(C)CC2)cc1Cl")
9.5
>>> measured_number("COc1cccc(C2=CC(c3ccc(N(C)C)cc3)n3ncnc3N2)c1 (configuration not stated)")
-1.1
>>> measured_number("CSc1nc(N2CCOCC2)c2ccccc2n1")
9.1
>>> measured_number("CCN(CC)S(=O)(=O)c1ccc(OC(C)C)nc1")
-11.5
>>> measured_number("N=c1c2c(-c3ccccc3)c(-c3ccccc3)n(Cc3ccco3)c2ncn1CCN1CCOCC1")
32.6
>>> measured_number("c1cn2cc(-c3ccc4c(c3)OCO4)nc2s1")
15.3
>>> measured_number("Cc1cc(C)n(-c2nc3c(c(=O)[nH]c(=O)n3C)n2CCc2ccccc2)n1")
11.3
>>> measured_number("OC(CCN1CCCCC1)(c1ccccc1)C1CCCCC1 (configuration not stated)")
14.3
>>> measured_number("COc1ccc2nc(NCc3ccccc3)[nH]c2c1")
39.9
>>> measured_number("Cc1cccc(S(=O)(=O)Nc2cccc(-c3cn4ccsc4n3)c2)c1")
31.3
>>> measured_number("Cc1ccc(Cn2c(-n3nc(C)cc3C)nc3c2c(=O)[nH]c(=O)n3C)cc1")
5
>>> measured_number("C#CC(C)(C)NC(=O)c1ccccc1OC")
-11.3
>>> measured_number("Cc1ccc(C2C=C(c3ccccc3OC(F)F)Nc3ncnn32)cc1 (configuration not stated)")
-1.8
>>> measured_number("COc1ccc(CNC(=O)CSc2nc3nc(C)cc(C)n3n2)cc1")
1.6
>>> measured_number("O=C(CSc1nnc(-c2ccc(S(=O)(=O)N3CCCC3)cc2)o1)NCc1ccco1")
-15.4
>>> measured_number("COc1ccc(-c2cc(-c3c(O)c(OC)c4occc4c3OC)[nH]n2)cc1OC")
36.2
>>> measured_number("O=S(=O)(NCc1cn2ccsc2n1)c1ccc2c(c1)OCCO2")
4.2
>>> measured_number("O=S(=O)(Nc1nccs1)c1ccc2c(c1)OCCO2")
5.1
>>> measured_number("Cc1ccc2cc(CN(C(=O)c3ccco3)c3ccccc3)c(=O)[nH]c2c1")
-0.6
>>> measured_number("OC1CCCN(Cc2cccc3ccccc23)C1 (configuration not stated)")
9.5
>>> measured_number("Cc1ccc(S(=O)(=O)Nc2cccc(-c3cn4ccsc4n3)c2)cc1")
64
>>> measured_number("Cc1cc(Cl)ccc1OCCCC(N)=O")
-7
>>> measured_number("O=c1c2ccccc2nc(-c2ccccc2)n1CCCn1ccnc1")
-22.7
>>> measured_number("O=S(=O)(Nc1cccc(-c2nc3cccnc3s2)c1)c1ccc2c(c1)OCCO2")
50.4
>>> measured_number("CC1CN(c2nnnn2-c2ccccc2)CC(C)O1 (configuration not stated)")
-6.4
>>> measured_number("Cc1cc(S(=O)(=O)N2CCC(NC(=O)C34CC5CC(CC(C5)C3)C4)CC2)ccc1-n1cnnn1")
-5.5
>>> measured_number("O=C(COc1cc(=O)n2c(n1)SCCC2)c1ccccc1")
-1.2
>>> measured_number("COc1ccc(CCn2c(-n3nc(C)cc3C)nc3c2c(=O)[nH]c(=O)n3C)cc1")
52.6
>>> measured_number("c1ccc2c(c1)oc1c(Nc3ccc4c(c3)OCO4)ncnc12")
-23.6
>>> measured_number("OCCNc1ncnc2c1c(-c1ccccc1)c(-c1ccccc1)n2Cc1ccco1")
21.6
>>> measured_number("CC(C)(C)c1ccc(C(O)CCCN2CCC(C(O)(c3ccccc3)c3ccccc3)CC2)cc1 (configuration not stated)")
121
>>> measured_number("CCOC(=O)C1C2C=CC3(CN(Cc4cccs4)C(=O)C13)O2 (configuration not stated)")
4.9
>>> measured_number("Cc1cc(-c2ccco2)n2c(nc3ccccc32)c1C#N")
18.2
>>> measured_number("CC(C)OCC(O)CN (configuration not stated)")
-11.2
>>> measured_number("Cn1nnnc1SCc1nc2ccccc2[nH]1")
3.7
>>> measured_number("O=C(NCCc1cn2ccccc2n1)c1ccc(Br)o1")
-1.7
>>> measured_number("O=S(=O)(Nc1cccnc1)c1ccc2c(c1)OCCO2")
1.8
>>> measured_number("O=C(CSc1nnc(Cc2ccccc2)o1)Nc1ccc(Br)cn1")
-11.2
>>> measured_number("COc1ccccc1-c1nnn(CC#N)n1")
6.1
>>> measured_number("CSc1ccccc1NC(=O)c1cnccn1")
-5.1
>>> measured_number("Cc1cc(C(=O)OCC(=O)c2c(N)n(C)c(=O)n(C)c2=O)c(C)n1-c1ccccc1")
1.3
>>> measured_number("CCOC(=O)C1CCN(C(=O)COc2ccc(Br)cc2)CC1")
6.3
>>> measured_number("Cc1cc(Cl)ccc1OCc1nc(-c2ccc(O)cc2)n[nH]1")
86.2
>>> measured_number("CC(C)[C@H](NC(=O)OC(C)(C)C)c1nnc(S(=O)(=O)Cc2c(F)cccc2Cl)o1")
-5.9
>>> measured_number("COc1ccc(OCC(=O)Nc2ccccc2C(=O)N2CCCC2)cc1")
-0.2
>>> measured_number("O=S(=O)(Nc1cccc(-c2cn3ccsc3n2)c1)c1ccc(F)cc1")
42.2
>>> measured_number("CC(C)CC(=O)Nc1cccc(-c2cn3ccsc3n2)c1")
11.7

Values compiled from PubChem BioAssay AID431.
